Source listed as paper PMC9505023.

Tested on: Vero cells (ATCC CCL-81)
Experiment: Cytotoxicity test, WST8-based CCK-8 cell viability
Design: species or system African green monkey; unit: %
Conditions: 100 µM, 48 h; cell viability as percentage relative to untreated controls; mean ± SD
quantity-kind: Vero cell proliferation
Write the value as a bare number.

The examples below pair each entry with its known result.
[[record]]
molecule = "O=C1Nc2cc(OC(F)(F)F)ccc2C1(C1CNc2ccccc21)C1CNc2ccccc21 (stereo not shown)"
measured_value = 8.9

[[record]]
molecule = "COc1ccc2c(c1)C(C1(C3CNc4ccc(OC)cc43)C(=O)N(Cc3ccc(Cl)cc3)c3ccccc31)CN2 (stereo not shown)"
measured_value = 87.0

[[record]]
molecule = "COc1ccc2c(c1)C(c1c(Cl)nc3sccn13)(c1c(Cl)nc3sccn13)C(=O)N2"
measured_value = 70.9

[[record]]
molecule = "COc1ccc(CN2C(=O)C(C3CNc4ccccc43)(C3CNc4ccccc43)c3cc(OC)ccc32)cc1 (stereo not shown)"
measured_value = 107.9

[[record]]
molecule = "COc1ccc2c(c1)C(C1(C3CNc4ccc(OC)cc43)C(=O)Nc3cc(OC)c(OC)c(OC)c31)CN2 (stereo not shown)"
measured_value = 54.3


Let me check: COc1ccc(CN2C(=O)C(c3c(Cl)nc4sccn34)(c3c(Cl)nc4sccn34)c3cc(OC)ccc32)cc1 , system Vero cells (ATCC CCL-81), measured Vero cell proliferation is 84.3

====

Vero cell proliferation by entry:
System: Vero cells (ATCC CCL-81)
Experiment: Cytotoxicity test, WST8-based CCK-8 cell viability
Design: species or system African green monkey; unit: %
Conditions: 100 µM, 48 h; cell viability as percentage relative to untreated controls; mean ± SD
Method: African green monkey kidney cells (Vero ATCC CCL-81) obtained from ATCC were cultured in Eagle’s minimal essential medium (MEM) (Sigma-Aldrich, St. Louis, MO, USA), supplemented with 10% fetal bovine serum (FBS) (Carlo Erba Reagents, Milan, Italy), 100 U/mL penicillin, and 100 µg/mL streptomycin at 37 °C with 5% CO2. […] The cell viability was assessed by a WST8-based assay according to the manufacturer’s instructions (CCK-8, Cell Counting Kit-8, Dojindo Molecular Technologies, Rockville, MD, USA). […]
Write the value as a bare number.

[[record]]
compound = "O=C1Nc2c(Cl)ccc(Cl)c2C1(C1CNc2ccccc21)C1CNc2ccccc21 (stereo not shown) [4f]"
quantity_kind = "Vero cell proliferation"
measured_value = 9.8

[[record]]
compound = "O=C1Nc2cccc(I)c2C1(C1CNc2ccccc21)C1CNc2ccccc21 (stereo not shown) [4h, 4′-iodo-[3,3′:3′,3″-terindolin]-2′-one]"
quantity_kind = "Vero cell proliferation"
measured_value = 10.6

[[record]]
compound = "O=C1Nc2ccccc2C1(c1c(Cl)nc2sccn12)c1c(Cl)nc2sccn12 [6c]"
quantity_kind = "Vero cell proliferation"
measured_value = 92.8


// Cc1cc(C)c2c(c1)NC(=O)C2(C1CNc2ccccc21)C1CNc2ccccc21 (stereo not shown) [4e] : Vero cell proliferation value = 8.5
